Give TGI for every item shown.
- Test system: CCRF-CEM leukemia
- protocol: NCI tumour cell line growth inhibition, 48 h

Parameters: items (list). Returns: TGI for each item.
1. CSc1cnc2ccccc2c1Sc1c[nH]c2ccccc2c1=O
2. O=c1c2nc(-c3ccccc3)oc2n(-c2ccccc2)c(=O)n1-c1ccccc1
3. CCCCCC(=O)Nc1nc2nc[nH]c2c(=O)[nH]1

Reply:
["> 87.3 µM", "> 46.4 µM", "> 100 µM"]

---

- Tested on: SN12C renal
- protocol: NCI tumour cell line growth inhibition, 48 h
metric: TGI

Consider the worked cases shown below.
compound: O=C(N=Nc1ccccc1Cl)NNc1ccccc1Cl
measured.target: SN12C renal
value: > 100 µM
//
compound: [N-]=[N+]=NCCCn1c2c(c3ccc([N+](=O)[O-])cc3c1=O)C(=O)c1cc(Br)ccc1-2
measured.target: SN12C renal
value: > 100 µM
//
compound: C#Cc1cccc(Nc2nc(Cl)nc3cc(NC(=O)CCl)ccc23)c1
measured.target: SN12C renal
value: 1.8 µM

Parameters: items (list). Returns: TGI for each item.
1. O=C1NC(Cc2ccc(O)cc2)C(=O)NC1Cc1ccc(O)cc1 (stereo not drawn)
2. C=C1C(O)C2CC(C)(CO)C(=O)C2=C(CC(C)C)C12CC2 (stereo not drawn)
3. N#Cc1ccccc1NC(=O)C(=O)C1NC(=S)NC1=O (stereo not drawn)
4. Clc1cc(Cl)ncn1
5. O=C(O)c1ccccc1C1c2ccccc2Oc2ccccc21
6. NC1c2ccccc2Nc2ccccc21

Reply:
["> 100 µM", "> 100 µM", "> 100 µM", "> 100 µM", "> 100 µM", "19 µM"]

Parameters: items (list). Returns: TGI for each item.
1. CCCCN(C)/N=N/c1nc[nH]c1C(N)=O
2. Cc1cc(-c2c(F)cc3c4nn([C@H]5CC[C@@H](N(C)C)CC5)c(=O)c-4cn(C4CC4)c3c2F)cc(C)n1
3. CC(C)(C)C1=C(Br)C(O)(C(C)(C)C)OP1(=O)c1ccccc1 (stereo not drawn)
4. COc1ccc(Oc2ccccc2N)cc1
5. COc1cc(C2C3=C(COC3=O)N(CCO)c3cc4c(cc32)OCCO4)cc(OC)c1OC (stereo not drawn)
6. CCCCCC(=O)Nc1nc2nc[nH]c2c(=O)[nH]1

Reply:
["> 100 µM", "0.0888 µM", "> 100 µM", "> 100 µM", "> 50 µM", "> 100 µM"]

Parameters: items (list). Returns: TGI for each item.
1. COC(NC(=O)Nc1ccccc1C)(C(F)(F)F)C(F)(F)F
2. COc1ccc2nc(C(=O)c3ccccc3)c(C)cc2c1
3. COc1ccccc1NC(=O)CC(=O)NN
4. CC/C(Cc1ccccc1)=C(\c1ccc(OCCN2CCCC2)cc1)c1ccc(OC(=O)NCc2ccccc2)cc1
5. NC(=O)c1ccc(Oc2nccc(-c3c(-c4ccc(F)cc4)ncn3C3CCNCC3)n2)cc1
6. COCCOc1cc(C)cc(/C=C(C)/C=C/C2=C(C)CCCC2(C)C)n1
7. CS(=O)(=O)OCCCNCCCOS(C)(=O)=O
8. Nc1c(S(=O)(=O)O)cc(S(=O)(=O)O)c2ccc(N=Nc3ccc(/C=C/c4ccc(N=Nc5ccc6c(S(=O)(=O)O)cc(S(=O)(=O)O)c(N)c6c5O)cc4S(=O)(=O)O)c(S(=O)(=O)O)c3)c(O)c12

Reply:
1. > 100 µM
2. > 65.8 µM
3. > 100 µM
4. 3.33 µM
5. > 25 µM
6. > 100 µM
7. 3830 µM
8. > 100 µM

Parameters: items (list). Returns: TGI for each item.
1. CCCOC(=O)c1c(C)n(C)c2scc[n+]12
2. O=c1[nH]c(=O)n(C2OC(CO)C(O)C2O)cc1OCCCc1ccccc1 (stereo not drawn)
3. CCNc1cc2c3c(c1)CCN3CCC2
4. N#CC1=C(N)Oc2c(ccc3ccccc23)C1c1cc(=O)oc2ccc(Cl)cc12 (stereo not drawn)
5. CC(=O)OCC1OC(n2c(C)c(C)c(C)c(C#N)c2=S)C(OC(C)=O)C(OC(C)=O)C1OC(C)=O (stereo not drawn)
6. Oc1ccc(Oc2cc3c(cc2Oc2ccc(O)cc2)-c2nc-3nc3[nH]c(nc4nc(nc5[nH]c(n2)c2cc(Oc6ccc(O)cc6)c(Oc6ccc(O)cc6)cc52)-c2cc(Oc5ccc(O)cc5)c(Oc5ccc(O)cc5)cc2-4)c2cc(Oc4ccc(O)cc4)c(Oc4ccc(O)cc4)cc32)cc1

Reply:
["> 100 µM", "> 100 µM", "> 10 µM", "45.4 µM", "> 100 µM", "> 100 µM"]
